Known GI50 of a selection of compounds
# Tested on: A498
# PROTOCOL: NCI tumour cell line growth inhibition, 48 h
Active and inactive are the calls of the source. Rule as the data show it: active = GI50 up to about 1.1 µM and inactive = higher.

{"columns": ["COMPOUND", "GI50"],
 "data": [
  ["COc1ccc(NC(=O)C2=C(SC)C(=O)N=C2N)cc1", "> 100 µM (inactive)"],
  ["ON(CCc1ccncc1)Cc1ccccc1", "> 100 µM (inactive)"],
  ["CCc1cn2c(/C=N/N=C(N)N)c(-c3cc(C)c(Cl)cc3Cl)nc2s1", "1.77 µM (inactive)"],
  ["Sc1nnc(-c2ccnc(-c3nnc(S)[nH]3)c2)[nH]1", "> 100 µM (inactive)"],
  ["COc1cc(O)cc(O)c1C(=O)CC(Cl)(Cl)Cl", "> 100 µM (inactive)"],
  ["O=C1Nc2ccccc2N/C1=C\\C(=O)C(F)F", "> 100 µM (inactive)"],
  ["OC(CCNCc1ccccc1)c1ccc2ccccc2c1 (configuration not stated)", "19.4 µM (inactive)"]
]}
